System: SCD1 expression
PROTOCOL SUMMARY: Inhibition assay: qPCR of SCD1 expression in HepG2 cells (Biological Example 1)
Type: cell-based
REPORTED CONDITIONS: Homo sapiens, 10 μM, 24 hours, read-out: Inhibition Percentage (%) 10 μM (SCD1 expression)
MEASUREMENT NAME: inhibition at 10 µM

* CCCc1cc(-n2nc(C)c(-c3ccc(NC(C)C)nc3)c2C)ccn1 | 50 to 75%
* CCCc1cc(-n2cc(-c3ccc(NS(=O)(=O)C4CC4)cc3Cl)cn2)ccn1 | > 75%
* CCCc1cc(-n2nc(C)c(-c3ccc(NS(=O)(=O)C(F)(F)F)nc3)c2C)ccn1 | 10 to 50%
* CCCc1cc(-n2cc(-c3ccc(NC4CCC4)nc3)c(C)n2)ccn1 | > 75%
* CCCc1cc(-n2cc(-c3ncc(NCC4CC4)cc3Cl)cn2)ccn1 | > 75%
* CCCc1cc(-n2cc(-c3ccc(NS(=O)(=O)C4CC4)cn3)cn2)ccn1 | > 75%
* CCCc1cc(-n2nc(C)c(-c3ccc(NC4CCC4)nc3)c2C)ccn1 | > 75%
* CCCc1cc(-n2cc(-c3ncc(NS(=O)(=O)C4CC4)cc3Cl)cn2)ccn1 | > 75%
* CCCn1cc(-n2cc(-c3ccc(NC(C)C)nc3)cn2)ccc1=O | > 75%

* * *

Reported inhibition at 10 µM values for a set of molecules
System: SCD1 expression
PROTOCOL SUMMARY: Inhibition assay: qPCR of SCD1 expression in HepG2 cells (Biological Example 1)
Type: cell-based
REPORTED CONDITIONS: Homo sapiens, 10 μM, 24 hours, read-out: Inhibition Percentage (%) 10 μM (SCD1 expression)
MEASUREMENT NAME: inhibition at 10 µM

• CCCc1cc(-n2cc(-c3ccc(NCC4CC4)cn3)cn2)ccn1 = > 75%
• CCCc1cc(-n2cc(-c3ncc(NC(C)C)cc3Cl)cn2)ccn1 = > 75%
• CCCc1cc(-n2cc(-c3ccc(NCC(C)C)nc3)c(C)n2)ccn1 = > 75%
• CCCc1cc(-n2cc(-c3ccc(NS(=O)(=O)CC4CC4)cc3)cn2)ccn1 = > 75%
• CCCc1cc(-n2cc(-c3ccc(NC4CCOCC4)nc3)cn2)ccn1 = > 75%
• CCCc1cc(-n2cc(-c3ccc(NCC(C)C)cn3)cn2)ccn1 = > 75%
• CCCc1cc(-n2cc(-c3ncc(NS(=O)(=O)CC4CC4)cc3Cl)cn2)ccn1 = > 75%
• CCCc1cc(-n2cc(-c3ccc(NC4CCCC4)nc3)c(C)n2)ccn1 = > 75%
• CCCc1cc(-n2cc(-c3ncc(NS(C)(=O)=O)cc3Cl)cn2)ccn1 = 50 to 75%
• CCCc1cc(-n2nc(C)c(-c3ccc(NCC(C)C)nc3)c2C)ccn1 = 50 to 75%
• CCCc1cc(-n2cc(-c3ccc(NS(=O)(=O)CC4CC4)cn3)cn2)ccn1 = > 75%
• CCCc1cc(-n2cc(-c3ccc(NCC(C)C)nc3)cn2)ccn1 = > 75%
• CCCc1cc(-n2cc(-c3ccc(NS(=O)(=O)C4CC4)nc3)cn2)ccn1 = 10 to 50%
• CCCc1cc(-n2cc(-c3ccc(NCC(C)C)cc3)cn2)ccn1 = > 75%
• CCCc1cc(-n2cc(-c3ccc(NC(C)C)nc3)c(C)n2)ccn1 = > 75%
• CCCc1cc(-n2cc(-c3ncc(NC4CCCC4)cc3Cl)cn2)ccn1 = > 75%
• CCCc1cc(-n2cc(-c3ccc(NS(=O)(=O)C4CC4)cc3)cn2)ccn1 = > 75%
• CCCc1cc(-n2cc(-c3ccc(NC4CCCC4)cn3)cn2)ccn1 = > 75%
• CCCc1cc(-n2cc(-c3ccc(NC(C)C)nc3)cn2)ccn1 = > 75%

* * *

Tested on: SCD1 expression
PROTOCOL SUMMARY: Inhibition assay: qPCR of SCD1 expression in HepG2 cells (Biological Example 1)
Assay type: cell-based
REPORTED CONDITIONS: Homo sapiens, 10 μM, 24 hours, read-out: Inhibition Percentage (%) 10 μM (SCD1 expression)
Reported inhibition at 10 µM values for a set of molecules
MEASUREMENT NAME: inhibition at 10 µM

• CCCc1cc(-n2cc(-c3ccc(NC(C)C)cn3)cn2)ccn1 [Example 21] = > 75%
• CCCc1cc(-n2cc(-c3ccc(NCC4CC4)nc3)c(C)n2)ccn1 [Example 54] = 50 to 75%
• CCCc1cc(-n2cc(-c3ccc(NC4CCCC4)nc3)cn2)ccn1 [Example 32] = > 75%
• CCCc1cc(-n2cc(-c3ccc(NS(=O)(=O)C(F)(F)F)cc3Cl)cn2)ccn1 [Example 11] = 10 to 50%
• CCCc1cc(-n2cc(-c3ccc(NCC4CC4)cc3Cl)cn2)ccn1 [Example 17] = > 75%
• CCCn1cc(-n2cc(-c3ccc(NS(C)(=O)=O)cc3)cn2)ccc1=O [Example 45] = > 75%
• CCCc1cc(-n2cc(-c3ccc(NC4CCC4)nc3)cn2)ccn1 [Example 33] = > 75%
• CCCc1cccc(-n2cc(-c3ccc(NS(C)(=O)=O)cc3)cn2)c1 [Example 47] = 10 to 50%
• CCCc1cc(-n2cc(-c3ncc(NCC(C)C)cc3Cl)cn2)ccn1 [Example 26] = > 75%
• CCCc1cc(-n2cc(-c3ccc(NS(C)(=O)=O)cn3)cn2)ccn1 [Example 20] = 10 to 50%
• CCCc1cc(-n2nc(C)c(-c3ccc(NCC4CC4)nc3)c2C)ccn1 [Example 35] = 50 to 75%
• CCCc1cc(-n2nc(C)c(-c3ccc(NC4CCCC4)nc3)c2C)ccn1 [Example 40] = 50 to 75%
• CCCc1cc(-n2cc(-c3ccc(NS(=O)(=O)C(C)C)cc3)cn2)ccn1 [Example 4] = > 75%
• CCCc1cc(-n2cc(-c3ccc(NC(C)C)cc3Cl)cn2)ccn1 [Example 13] = > 75%
• CCCc1cc(-n2cc(-c3ccc(NCC(C)C)cc3Cl)cn2)ccn1 [Example 14] = > 75%
• CCCc1cc(-n2cc(-c3ccc(NS(C)(=O)=O)cc3Cl)cn2)ccn1 [Example 9] = > 75%
• CCCc1cc(-n2cc(-c3ccc(NC(C)C)cc3)cn2)ccn1 [Example 6] = > 75%

Origin of values: patent US11497738B2
